The measurements presented in this section are drawn from ChEMBL document CHEMBL5053485.

- PROTOCOL TEXT: Protein binding in human serum at 50 uM after 1 hr by RP-UHPLC method
- Type: ADME, cell-free
- CONDITION DETAILS: read-out: PB (converted)
ENDPOINT: fraction unbound at 1 h, 50 µM

{"LINE NOTATION": "COc1cccc(-c2cc(F)c(Nc3ncccc3C(=O)O)c(F)c2)c1", "ENDPOINT": "fraction unbound at 1 h, 50 µM", "RECORDED RESULT": "< 0.01"}
{"LINE NOTATION": "CCn1c(CO)nn(-c2cc(O[C@@H](C)C(F)(F)F)c(C(=O)Nc3c(F)cccc3Cl)cc2F)c1=O", "ENDPOINT": "fraction unbound at 1 h, 50 µM", "RECORDED RESULT": 0.099}

* * *

- PROTOCOL TEXT: n-Octanol/PBS partition coefficient, logD of the compound at pH 7.4 incubated for 20 mins by shake flask method
- Assay type: physicochemical
Attribute: logD at 20 min

{"COMPOUND": "O=C(Nc1c(F)c(F)c(-c2cccc(F)c2)c(F)c1F)c1c(O)nn2ccccc12", "logD at 20 min": 2.09}
{"COMPOUND": "CCn1c(CO)nn(-c2cc(O[C@@H](C)C(F)(F)F)c(C(=O)Nc3c(F)cccc3Cl)cc2F)c1=O", "logD at 20 min": 2.7}
{"COMPOUND": "Cc1c(-c2ccc(-c3ccccc3F)cc2)nc2ccc(F)cc2c1C(=O)O [BREQUINAR]", "logD at 20 min": 1.83}

* * *

- PROTOCOL TEXT: Solubility of compound in PBS at pH 7.4 after 24 hrs by UHPLC analysis
- Format: physicochemical

{"LINE NOTATION": "CCn1c(CO)nn(-c2cc(O[C@@H](C)C(F)(F)F)c(C(=O)Nc3c(F)cccc3Cl)cc2F)c1=O", "solubility at 24 h": "< 1 µM"}
{"LINE NOTATION": "O=C(Nc1c(F)c(F)c(-c2ccccc2)c(F)c1F)c1c(O)nn2c1CCCC2", "solubility at 24 h": "< 6 µM"}
{"LINE NOTATION": "O=C(Nc1c(F)c(F)c(-c2ccccc2)c(F)c1F)c1c(O)nn2c(Cl)cccc12", "solubility at 24 h": "< 6 µM"}
